Each recorded value in this set is attributed to patent US6399610B1.

# Test: Bioavailability of levosimendan following buccal and intravenous administration in dogs (plasma concentration)
# Type: in vivo, beagle dogs
# Condition notes: beagle, dog, plasma, iv, 0.02 mg/kg, dog plasma, iv 0.02 mg/kg, 60 min, Dog 2
Readout name: concentration at 60 min (ng/mL)
Respond numerically; units are ng/mL and should not be typed.

Given the compound CC1CC(=O)NN=C1c1ccc(NN=C(C#N)C#N)cc1 (single isomer, unassigned; (-)) , what is its reported concentration at 60 min?
36

---

# Test: Bioavailability of levosimendan following buccal and intravenous administration in dogs (plasma concentration)
# Format: in vivo, beagle dogs
# Condition notes: beagle, dog, plasma, iv, 0.02 mg/kg, dog plasma, iv 0.02 mg/kg, 20 min, Dog 1
Readout name: concentration at 20 min
The answer should read as a number with its unit following.

# lookup: concentration at 20 min of CC1CC(=O)NN=C1c1ccc(NN=C(C#N)C#N)cc1 (single isomer, unassigned; (-))
105 ng/mL

---

# Test: Bioavailability of levosimendan following buccal and intravenous administration in dogs (plasma concentration)
# Type: in vivo, beagle dogs
# Condition notes: beagle, dog, plasma, other: buccal spray, 0.02 mg/kg, dog plasma, buccal spray 0.02 mg/kg, 40 min, Dog 2
Readout name: concentration at 40 min
Your reply should be a number followed by the unit it is expressed in.

I would be grateful if you could share the reported concentration at 40 min for CC1CC(=O)NN=C1c1ccc(NN=C(C#N)C#N)cc1 (single isomer, unassigned; (-)) [Levosimendan] .
25 ng/mL

---

# Test: Bioavailability of levosimendan following buccal and intravenous administration in dogs (plasma concentration)
# Assay type: in vivo, beagle dogs
# Condition notes: beagle, dog, plasma, other: buccal spray, 0.02 mg/kg, dog plasma, buccal spray 0.02 mg/kg, 120 min, Dog 2
Readout name: concentration at 120 min (ng/mL)
Use ng/mL as the unit, but write only the number.

Endpoint output: concentration at 120 min of CC1CC(=O)NN=C1c1ccc(NN=C(C#N)C#N)cc1 (single isomer, unassigned; (-)) . Value?
12

---

# Test: Bioavailability of levosimendan following buccal and intravenous administration in dogs (plasma concentration)
# Format: in vivo, beagle dogs
# Condition notes: beagle, dog, plasma, iv, 0.02 mg/kg, dog plasma, iv 0.02 mg/kg, 60 min, Dog 3
Readout name: concentration at 60 min (ng/mL)
Report the value in ng/mL with no unit label.

Could you share which concentration at 60 min value was measured for CC1CC(=O)NN=C1c1ccc(NN=C(C#N)C#N)cc1 (single isomer, unassigned; (-)) ?
46

---

# Test: Bioavailability of levosimendan following buccal and intravenous administration in dogs (plasma concentration)
# Assay type: in vivo, beagle dogs
# Condition notes: beagle, dog, plasma, iv, 0.02 mg/kg, dog plasma, iv 0.02 mg/kg, 20 min, Dog 3
Readout name: concentration at 20 min (µg/mL)
Give the value, in units of µg/mL, as a plain number.

Reported concentration at 20 min for CC1CC(=O)NN=C1c1ccc(NN=C(C#N)C#N)cc1 (single isomer, unassigned; (-)) : what is it?
0.082

---

# Test: Bioavailability of levosimendan following buccal and intravenous administration in dogs (plasma concentration)
# Format: in vivo, beagle dogs
# Condition notes: beagle, dog, plasma, other: buccal spray, 0.02 mg/kg, dog plasma, buccal spray 0.02 mg/kg, 60 min, Dog 1
Readout name: concentration at 60 min (ng/mL)
Field format: number, assumed ng/mL, no unit text.

Given CC1CC(=O)NN=C1c1ccc(NN=C(C#N)C#N)cc1 (single isomer, unassigned; (-)) , state its recorded concentration at 60 min.
26
